assay: yeast display, Sf9 membrane polyspecificity reagent, FACS + sequencing; frameworks hold sequencing errors
Measurement Name: polyreactivity (PSR sort gate)

QVQLVESGGGLVQAGGSLRLSCAASGSTFYWYAMGWYRQAPGKERELVAVITVRGGSTYYADSVKGRFTISRDNAKNTVYLQMNSLKPEDTAVYYCAAEPTSYLYKYWYDYWGEGTQVTVSS; low polyreactivity
QVQLVESGGGLVQAGGSLRLSCAASGRTIAINAMGWYRQAPGKEREFVAAITSRSSRTYYADSVKGRFTISRDNAKNTVYLQMNSLKPEDTAVYYCARGSELGYYAWVYYWGQGTQVTVSS; high polyreactivity
QVQLVESRGGLVQAGGSLRLSCAASGFTFVGYAMGWYRQAPGKERALVAAISRRGTPTYYADSVKGRFTISRDNAKNTVYLQMNSLKPEDTAVYFCAASNGYQAVTYDYWGQGTQVTVSS; high polyreactivity
QVQVVESGGGLVQPGCSLRLSCAASGNIFVYNDMGWYRQAPGKERELVAAIDSGGSTYYADSVKGRFTISRDNAKNNVYLKMNSLKQEDTAVYYCAADYYCTYRTIYYYWGQGTQVTVSS; low polyreactivity
QVQLVESGGGLVQAGGSLRLSCAASGSIFSYYAMGWYRQAPGKERELVATISNSGVSTYYADSVKGRFTISRDNAKNTVYLQMNSLKPEDTAVYYCAKEWLYYNGFFRSYYWGQGTQVTVSS; high polyreactivity

QVQLVESGGGLVQAGGSLRLSCAASGGIFHYYAMGWYRQAPGKERELVAAISWNTGSTYYADSVKGRFTISRDNAKNTVYLQMNSLKPVDTAVYYCAASYRSPWLRYDYWGQGTQVTVSS yielded polyreactivity (PSR sort gate) of high polyreactivity

QVQLVESGGGLVQAGGSLRLSCAASGFTFGRNAMGWYRQAPGKERELVARITTGGSTNYADSVKGRFTISRDNAKNTVYLQMNSLKPEDTAVYYCAATYRSLALFWTYGYWGQGTQVTVSS yielded polyreactivity (PSR sort gate) of low polyreactivity

QVQLVESGGGLVQAGGSLLLSCAAARIIFKYNAMGWYRQAPGKDRELVARITARGGRTNYADSVKGRFTISRDNAKHTVYLQMNSLKPEDTAVYYCAKKLRGWHTIITDYDYWGQGTQVTVSS yielded polyreactivity (PSR sort gate) of low polyreactivity

QVQLVESGGGLVQAGGSLRLSCAASGRIFGQNAMGWYRQAPGKERELVAAITWNGGRTYYADSVKGRFTISRDNAKNTVYLQMNSLKPEDTAVYYCNADGKHRLRDYWGQGTQVTVSS yielded polyreactivity (PSR sort gate) of high polyreactivity

QVQLVESGGGLVQAGGSLRLSCAASGLIFQVYTMGWYRQAPGKERELVAAISWDAGSTYYADSVKGRFTISRDNAKNTVYLQMNSLKPEDTAVYYCAAKRKIRGYGPYEYWGQGTQVTVSS yielded polyreactivity (PSR sort gate) of high polyreactivity

QVQLVESGGGLVQAGGSLRLSCAASGSIFSSYTMGWYRQAPGKERELVAAISSTGSTYYADSVKGRFTISRDNAKNTVYLQMNSLKPEDTAVYYCAARGWYWQQYKGHTRYDYWGQGTQVTVSS yielded polyreactivity (PSR sort gate) of high polyreactivity

QVQLVESGGGLVQAGGSLRLSCAASGFIFSWNAMGWYRQAPGKERELVAVITWSGSRTNYADSVKGRFTISRDNAKNTVYLQMNSLKPEDTAVYYCATKGPVYTSSRPVSGGAYNYWGQGTQVTVSS yielded polyreactivity (PSR sort gate) of low polyreactivity

QVQLVESGGGLVQAGGSLRLSCAASGLTFIRYAMGWNRQAPGKERELVASISRGGSTYYADSVKGRFTISRDNAKNTVYLQMNSLKPEDTAVYYCAAQHVGHNYYNSGFYYWGQATQVTVSS yielded polyreactivity (PSR sort gate) of low polyreactivity

QVQLVESGGGLVQPGGSLRLSCAASGFILYGNAMGWYRQAPGKERELVAAISRRGGSTYYADSVKGRFTISRDNAKNTVYLQMNSLKPEDTAVYYCAKDGPGGGTRIYDYWGQGTQVTVSS yielded polyreactivity (PSR sort gate) of high polyreactivity

QVQLVESGGGLVQAGGSLRLSCAASGRISYSNAMGWYRQAPGKERELVAAITSSGGSTYYADSVKGRFTISRDNAKNTVYLQMNSLKPEDTAVYYCAAVAYALGFASKEDYWGQGTQVTVSS yielded polyreactivity (PSR sort gate) of high polyreactivity

QVQLVESGGGLVQAGGSLRLSCAASGLIFRYYSMGWYRQAPGKERELVAAISWTGGSTYYADSVKGRFTISRDNAKYTVYLQLNSLKPEDTAVYYCIAGQWRYPGLYYYWGQGTQVTVSS yielded polyreactivity (PSR sort gate) of high polyreactivity

QVQLVESGGGLVHAGGSLRLSCAASGGIFSWNTMGWYRQAPGKERELVAAINWSSGRTYYADSVKGRFTISRDNAKYTVYLQMNSLKPEDTAVYYCAAKYYGSRKYDYWGQGTQVTVSS yielded polyreactivity (PSR sort gate) of high polyreactivity

QVQLVESGGGIVQAGGSLRLSCAASGITFVAYDMGGYRQAPGKERELVAAITWNGDRTYYADSVKGRFTISRDNAKNTVYVEMNSLKPEDTAVYDCSAYHYYYEMDYWGQGTQVTVPS yielded polyreactivity (PSR sort gate) of high polyreactivity

QVQLRESGGGLVQAGGSLLSCAASATISYYREMGWYRQAPGNERELVAGIGVGTITYYADSVKGRFTISRDNAKNTVYLQMNSLKPEDTAVYYCAAHIEGNDSHAYWGQGTQVTVSS yielded polyreactivity (PSR sort gate) of low polyreactivity

QVQLVESGGGLVQAGGSLRLSCAASGRTFNSYPMGWYRQAPGTERELVAAINYRGTSTYYSDSVKGRFTISRDNAMNTVYLQMNSLKPEDTAVYYCNARQTRSSRINYPEGIYNYWGQGTQVNVSS yielded polyreactivity (PSR sort gate) of high polyreactivity

QVQLVESGGGLVQAGGSLRLSCAASGFIFTYYGMGWYRQAPGKERELVAAITWSGASTYYADSVKGRFTISRDNAKNTVYLQMNSLKPEDTAVYYCNAGWDSGIVQSDETVYKYDYWGQGTQVTVSS yielded polyreactivity (PSR sort gate) of low polyreactivity
